STUDY SYSTEM: T1, human ASGR-1 (wild type) (human, UniProt P07306 1-291)
T1 construct: also called wt ASGR1; huASGR-1
T1 sequence: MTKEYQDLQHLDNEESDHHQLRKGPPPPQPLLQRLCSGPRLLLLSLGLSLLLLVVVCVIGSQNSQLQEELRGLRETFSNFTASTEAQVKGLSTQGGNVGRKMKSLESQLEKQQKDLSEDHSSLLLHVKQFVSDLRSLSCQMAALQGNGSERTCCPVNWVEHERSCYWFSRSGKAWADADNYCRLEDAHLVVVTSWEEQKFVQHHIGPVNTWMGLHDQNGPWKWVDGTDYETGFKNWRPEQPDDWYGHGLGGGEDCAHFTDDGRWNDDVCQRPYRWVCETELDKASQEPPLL
MEASUREMENT NOTES: FACS ratio: 65C12 geomean / this mAb geomean
The entries below are paired with their reported Expression Normalization to mAb 65C12.

Worked examples follow.
1. 60D2 (antibody, V domains shown, mAb) VH: EVQLVESGGGLVQPGGSLRLSCGASGFTFSSYSMNWVRQAPGKGLEWVSYISESSNIIYYTDSVKGRFTISRDNAMNSLYLQMNSLRDEDTAVYYCARADTPMVLYFYGMDVWGQGTTVTVSS VL: SYELTQPPSVSVSPGQTASITCSGNKLGDKYASWYQQRPGQSPVLVIYQDNKRPSGIPERFSGSNSGNTATLTISGTQTMDEADYYCQAWDNNTVVFGGGTKLTVL
1.89
2. 4A2 (antibody, V domains shown, mAb) VH: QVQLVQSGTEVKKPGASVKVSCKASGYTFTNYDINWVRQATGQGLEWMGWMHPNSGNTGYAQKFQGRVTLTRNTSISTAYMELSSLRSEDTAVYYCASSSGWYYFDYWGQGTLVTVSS VL: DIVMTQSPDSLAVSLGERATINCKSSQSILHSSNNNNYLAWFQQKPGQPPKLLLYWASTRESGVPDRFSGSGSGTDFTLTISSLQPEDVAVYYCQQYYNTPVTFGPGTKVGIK
1.36

Consider the additional binder presented here.
So what's the measured Expression Normalization to mAb 65C12 for this one? 48B12 (antibody, V domains shown, mAb) VH: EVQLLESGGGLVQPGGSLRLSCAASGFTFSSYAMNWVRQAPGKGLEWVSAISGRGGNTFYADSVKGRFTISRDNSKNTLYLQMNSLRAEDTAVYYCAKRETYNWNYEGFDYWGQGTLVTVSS VL: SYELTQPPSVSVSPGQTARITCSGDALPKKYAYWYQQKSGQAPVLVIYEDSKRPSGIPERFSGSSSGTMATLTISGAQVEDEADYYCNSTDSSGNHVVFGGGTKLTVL
1.07
